The measurements presented in this section are drawn from the RNAGym collection of RNA variant scans (doi:10.1126/science.aae0568).

B1: tRNA (parent)
chain: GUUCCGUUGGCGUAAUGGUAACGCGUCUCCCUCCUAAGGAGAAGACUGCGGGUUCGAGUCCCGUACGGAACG

Variants of: B1
testDescription: yeast fitness relative to wild type (ratio to wild type); higher = fitter; tRNA-Arg(CCU), competitive growth, 37 C, YPD
Variants at the floor of the assay were thinned out.
Please note: t applies when yeast fitness is 0.6 or greater, and f applies otherwise.

[
  {
    "var": "U3C A21C A45C C49U",
    "labelValue": "f"
  },
  {
    "var": "A21G C55A",
    "labelValue": "t"
  },
  {
    "var": "U3C C34A G44C C46U G51A",
    "labelValue": "f"
  },
  {
    "var": "C11U G23A U35C",
    "labelValue": "f"
  },
  {
    "var": "U8A A43U C55U",
    "labelValue": "f"
  },
  {
    "var": "C5G U47C C66U",
    "labelValue": "t"
  },
  {
    "var": "A14G C24U A43U A65C",
    "labelValue": "f"
  },
  {
    "var": "U8C C22G C49U A69U",
    "labelValue": "f"
  },
  {
    "var": "C22G C34A A36U A42C C46G",
    "labelValue": "f"
  },
  {
    "var": "C27U U28G A40C G51A",
    "labelValue": "f"
  },
  {
    "var": "U3C A45U U59C",
    "labelValue": "t"
  }
]
